melting point for assorted molecules
Counter-ions that a name gives are not always drawn.

[
  {
    "molecule": "Cc1cc(C)cc(CC(C)(C)NCC(O)c2cc(O)cc3c2OCC(=O)N3)c1 (centres unmarked) (as salt: hydrochloride)",
    "melting point": "235 to 238 °C"
  }
]

What the record says about CC(C)(Cc1ccc(F)cc1F)NCC(O)c1cc(O)cc2c1OCC(=O)N2 (centres unmarked) (as salt: hydrochloride) : melting point is 279 to 280 °C

What the record says about CC(C)(Cc1ccc(OCCCC(=O)O)cc1)NCC(O)c1cc(O)cc2c1OCC(=O)N2 (centres unmarked) (as salt: salt) : melting point is 201 to 204 °C

What the record says about Cc1cc(CC(C)(C)NCC(O)c2cc(O)cc3c2OCC(=O)N3)ccc1F (centres unmarked) (as salt: hydrochloride) : melting point is 278 to 280 °C

What the record says about Cc1cc(F)ccc1CC(C)(C)NCC(O)c1cc(O)cc2c1OCC(=O)N2 (centres unmarked) (as salt: hydrochloride) : melting point is 278 to 280 °C

Source: patent US20120035169A1
